// Log IC50 lookup, one value per entry
SYSTEM UNDER TEST: Phosphodiesterase 4 (Homo sapiens, UniProt P27815+Q08499+Q07343+Q08493)
TEST PROTOCOL: Inhibitory concentration against phosphodiesterase 4 (PDE4) in cytosol of human neutrophils
Format: protein assay
ASSAY METRIC: Log IC50

| COMPOUND | ASSAY VALUE |
| --- | --- |
| COc1ccc(C2=NN(Cc3cccnc3)C(=O)C3CCCCC23)cc1OC (centres undefined) | -7.6 |
| COc1ccc(C2=NN(C3Cc4ccccc4C3)C(=O)C3CC=CCC23)cc1OC (centres undefined) | -9.1 |
| COc1ccc(C2=NN(CC3CC3)C(=O)C3CC=CCC23)cc1OC (centres undefined) | -8.1 |
| COc1ccc(C2=NN(C3CCOCC3)C(=O)C3CC=CCC23)cc1OC (centres undefined) | -8.9 |
